Sourced from the supplement of paper PMC9112550

# Test system: Escherichia coli TOP10
# test_description: shrunken log2 fold change of peptide-encoding DNA abundance (4.5 h post-induction vs induction); higher = less antimicrobial activity (less host growth inhibition)
# measurement_context: time post-induction: 4.5 h; library: site-saturation at positions 5, 18, 19, 20
reported_property: shrunken log2 fold change

biopolymer_sequence=RRIRARPPRLPRPRPRPDYYPRP target="Escherichia coli TOP10" assay_value=-0.135
biopolymer_sequence=RRIRIRPPRLPRPRPRPPQNPRP target="Escherichia coli TOP10" assay_value=-0.33
biopolymer_sequence=RRIRKRPPRLPRPRPRPEPFPRP target="Escherichia coli TOP10" assay_value=0.0238
biopolymer_sequence=RRIRFRPPRLPRPRPRPESIPRP target="Escherichia coli TOP10" assay_value=-0.126
biopolymer_sequence=RRIRTRPPRLPRPRPRPEENPRP target="Escherichia coli TOP10" assay_value=-0.0317
biopolymer_sequence=RRIRERPPRLPRPRPRPMINPRP target="Escherichia coli TOP10" assay_value=-0.0967
biopolymer_sequence=RRIRLRPPRLPRPRPRPNAAPRP target="Escherichia coli TOP10" assay_value=-0.0536
biopolymer_sequence=RRIRTRPPRLPRPRPRPGLCPRP target="Escherichia coli TOP10" assay_value=-0.00367

====

Quick list: shrunken log2 fold change per entry.
# System: Escherichia coli TOP10
# test_description: shrunken log2 fold change of peptide-encoding DNA abundance (4.5 h post-induction vs induction); higher = less antimicrobial activity (less host growth inhibition)
# measurement_context: time post-induction: 4.5 h; library: site-saturation at positions 5, 18, 19, 20
reported_property: shrunken log2 fold change

biopolymer_sequence=RRIRLRPPRLPRPRPRPWQHPRP assay_value=-0.319
biopolymer_sequence=RRIRARPPRLPRPRPRPDKQPRP assay_value=-0.0794
biopolymer_sequence=RRIRDRPPRLPRPRPRPNECPRP assay_value=0.0169
biopolymer_sequence=RRIRERPPRLPRPRPRPWLTPRP assay_value=-0.0528
biopolymer_sequence=RRIRTRPPRLPRPRPRPHQQPRP assay_value=-0.0314
biopolymer_sequence=RRIRRRPPRLPRPRPRPTNHPRP assay_value=-0.0627
biopolymer_sequence=RRIRSRPPRLPRPRPRPLGCPRP assay_value=0.285
biopolymer_sequence=RRIRARPPRLPRPRPRPAMVPRP assay_value=0.109
biopolymer_sequence=RRIRQRPPRLPRPRPRPHAIPRP assay_value=-0.562
biopolymer_sequence=RRIRHRPPRLPRPRPRPVPAPRP assay_value=-0.0665
biopolymer_sequence=RRIRDRPPRLPRPRPRPSYPPRP assay_value=-0.2
biopolymer_sequence=RRIRRRPPRLPRPRPRPHRSPRP assay_value=-0.00354
biopolymer_sequence=RRIRRRPPRLPRPRPRPPQIPRP assay_value=0.908
biopolymer_sequence=RRIRKRPPRLPRPRPRPRIPPRP assay_value=0.11
biopolymer_sequence=RRIRWRPPRLPRPRPRPWRHPRP assay_value=-0.141

====

This listing pairs sequences with measured shrunken log2 fold change.
# Test system: Escherichia coli TOP10
# test_description: shrunken log2 fold change of peptide-encoding DNA abundance (4.5 h post-induction vs induction); higher = less antimicrobial activity (less host growth inhibition)
# measurement_context: time post-induction: 4.5 h; library: site-saturation at positions 5, 18, 19, 20
reported_property: shrunken log2 fold change

biopolymer_sequence=RRIRDRPPRLPRPRPRPSIMPRP reported_property="shrunken log2 fold change" assay_value=-0.0808
biopolymer_sequence=RRIRMRPPRLPRPRPRPPPIPRP reported_property="shrunken log2 fold change" assay_value=1.47
biopolymer_sequence=RRIRQRPPRLPRPRPRPQSMPRP reported_property="shrunken log2 fold change" assay_value=-0.395
biopolymer_sequence=RRIRSRPPRLPRPRPRPSFRPRP reported_property="shrunken log2 fold change" assay_value=-0.357
biopolymer_sequence=RRIRERPPRLPRPRPRPDMSPRP reported_property="shrunken log2 fold change" assay_value=-0.064
biopolymer_sequence=RRIRGRPPRLPRPRPRPCTWPRP reported_property="shrunken log2 fold change" assay_value=0.228
biopolymer_sequence=RRIRVRPPRLPRPRPRPGYLPRP reported_property="shrunken log2 fold change" assay_value=-0.14
biopolymer_sequence=RRIRIRPPRLPRPRPRPNVFPRP reported_property="shrunken log2 fold change" assay_value=-0.27
biopolymer_sequence=RRIRARPPRLPRPRPRPFPKPRP reported_property="shrunken log2 fold change" assay_value=0.178
biopolymer_sequence=RRIRRRPPRLPRPRPRPAWPPRP reported_property="shrunken log2 fold change" assay_value=0.446
biopolymer_sequence=RRIRYRPPRLPRPRPRPCNCPRP reported_property="shrunken log2 fold change" assay_value=-0.0018
biopolymer_sequence=RRIRHRPPRLPRPRPRPLKFPRP reported_property="shrunken log2 fold change" assay_value=-0.298
biopolymer_sequence=RRIRGRPPRLPRPRPRPTFEPRP reported_property="shrunken log2 fold change" assay_value=0.923
biopolymer_sequence=RRIRIRPPRLPRPRPRPWPWPRP reported_property="shrunken log2 fold change" assay_value=0.0338
biopolymer_sequence=RRIRLRPPRLPRPRPRPLDDPRP reported_property="shrunken log2 fold change" assay_value=-0.144

====

# System: Escherichia coli TOP10
# test_description: shrunken log2 fold change of peptide-encoding DNA abundance (4.5 h post-induction vs induction); higher = less antimicrobial activity (less host growth inhibition)
# measurement_context: time post-induction: 4.5 h; library: site-saturation at positions 5, 18, 19, 20
Here, each record is paired with measured shrunken log2 fold change data.
reported_property: shrunken log2 fold change

biopolymer_sequence=RRIRTRPPRLPRPRPRPMMPPRP target="Escherichia coli TOP10" assay_value=-0.0027
biopolymer_sequence=RRIRKRPPRLPRPRPRPSIQPRP target="Escherichia coli TOP10" assay_value=-0.149
biopolymer_sequence=RRIRNRPPRLPRPRPRPYVMPRP target="Escherichia coli TOP10" assay_value=-1.01
biopolymer_sequence=RRIRVRPPRLPRPRPRPANFPRP target="Escherichia coli TOP10" assay_value=0.0908
biopolymer_sequence=RRIRYRPPRLPRPRPRPSKDPRP target="Escherichia coli TOP10" assay_value=-0.642
biopolymer_sequence=RRIRKRPPRLPRPRPRPVTKPRP target="Escherichia coli TOP10" assay_value=0.063
biopolymer_sequence=RRIRPRPPRLPRPRPRPKMGPRP target="Escherichia coli TOP10" assay_value=-0.0348
biopolymer_sequence=RRIRDRPPRLPRPRPRPSGQPRP target="Escherichia coli TOP10" assay_value=-0.0305

====

# System: Escherichia coli TOP10;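 further: peptides expressed intracellularly from a pBAD plasmid library in pooled LB shake-flask culture, induced with 0.3% L-arabinose, DNA abundance read by NGS, three biological replicates, DESeq2 with apeglm shrinkage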
# test_description: shrunken log2 fold change of peptide-encoding DNA abundance (4.5 h post-induction vs induction); higher = less antimicrobial activity (less host growth inhibition)
# measurement_context: time post-induction: 4.5 h; library: site-saturation at positions 5, 18, 19, 20
reported_property: shrunken log2 fold change

biopolymer_sequence=RRIRWRPPRLPRPRPRPIPNPRP target="Escherichia coli TOP10" assay_value=-0.262
biopolymer_sequence=RRIRCRPPRLPRPRPRPSPEPRP target="Escherichia coli TOP10" assay_value=0.3
biopolymer_sequence=RRIRMRPPRLPRPRPRPNQYPRP target="Escherichia coli TOP10" assay_value=-0.218
biopolymer_sequence=RRIRRRPPRLPRPRPRPLFWPRP target="Escherichia coli TOP10" assay_value=0.472
biopolymer_sequence=RRIRKRPPRLPRPRPRPADSPRP target="Escherichia coli TOP10" assay_value=0.00593
biopolymer_sequence=RRIRRRPPRLPRPRPRPLMHPRP target="Escherichia coli TOP10" assay_value=0.292
biopolymer_sequence=RRIRGRPPRLPRPRPRPDECPRP target="Escherichia coli TOP10" assay_value=-0.00184
biopolymer_sequence=RRIRQRPPRLPRPRPRPPITPRP target="Escherichia coli TOP10" assay_value=-0.0813
biopolymer_sequence=RRIRTRPPRLPRPRPRPYVKPRP target="Escherichia coli TOP10" assay_value=-0.221
biopolymer_sequence=RRIRKRPPRLPRPRPRPQLQPRP target="Escherichia coli TOP10" assay_value=0.199
biopolymer_sequence=RRIRMRPPRLPRPRPRPGRFPRP target="Escherichia coli TOP10" assay_value=0.0931
biopolymer_sequence=RRIRNRPPRLPRPRPRPRPLPRP target="Escherichia coli TOP10" assay_value=0.402
biopolymer_sequence=RRIRPRPPRLPRPRPRPEKAPRP target="Escherichia coli TOP10" assay_value=0.385
biopolymer_sequence=RRIRDRPPRLPRPRPRPYCLPRP target="Escherichia coli TOP10" assay_value=-0.0759
biopolymer_sequence=RRIRQRPPRLPRPRPRPCNMPRP target="Escherichia coli TOP10" assay_value=0.00148
